Biological target: T1, human mature TGFβ1 (Homo sapiens, UniProt P01137)
T1 construct: Transforming Growth Factor-beta 1, human, mature form (cut from the precursor); also called TGFb1; source: bought: PeproTech
T1 sequence (P01137 279-390): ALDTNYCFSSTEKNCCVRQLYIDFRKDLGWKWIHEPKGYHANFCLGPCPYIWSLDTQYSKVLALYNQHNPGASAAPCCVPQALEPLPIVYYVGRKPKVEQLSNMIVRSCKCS
Test: SPR; Biacore T200; antibody captured on a Protein A sensor chip (about 90 RU); mature TGFβ isoform injected, five-fold dilutions 0.008 nM to 5 nM; HBS-EP pH 7.4, 150 mM NaCl; 37 °C; 100 μl/min; 3 min association, 60 min dissociation; one-to-one Langmuir model, global fit
Settings: both partners purified
pKd: −log10 of the molar value.

BINDER	pKd
humanized 4A11 variant 5 (antibody, V domains shown, as the VH of m7 (h4A11.v2): rbt4A11 CDRs and rabbit Vernier residues grafted on human germline IGHV3-48*01; as the VL of m12 (h4A11.v7): rbt4A11 CDRs and rabbit Vernier residues grafted on human germline IGKV3-20*01; human IgG1; also called h4A11.v5; v5; source: Expi293F, transient, purified (Protein A, SEC)) VH: EQQLVESGGGLVQPGGSLRLSCAVSGFSLSSYTVNWVRQAPGKGLEWIGYISYGGSAYYASWANGRFTISKDSAKNSVYLQMNSLRAEDTAVYFCARHMQVGGAPTGSMAAFDPWGPGTLVTVSS VL: EAVLTQSPGTLSLSPGERATLSCQSSQSVYNNNYLSWFQQKPGQPPRLLIYGASTLTSGVPDRFSGSGSGTDFTLTISRLEPEDFAVYYCAGGYSGSSDKYAFGGGTKVEIK	< 8.30
humanized 4A11 variant 4 (antibody, V domains shown, as the VH of m12 (h4A11.v7): rbt4A11 CDRs and rabbit Vernier residues grafted on human germline IGHV4-59*06; as the VL of m7 (h4A11.v2): rbt4A11 CDRs and rabbit Vernier residues grafted on human germline IGKV1D-39*01; human IgG1; also called h4A11.v4; v4; source: Expi293F, transient, purified (Protein A, SEC)) VH: EQQLQESGPGLVKPSETLSLTCTVTGFSLSSYTVNWVRQPAGKGLEWIGYISYGGSAYYASWANGRFTISKDSSKNQVSLKLSSVTAADTAVYFCARHMQVGGAPTGSMAAFDPWGPGTLVTVSS VL: DAQLTQSPSSLSASVGDRVTITCQSSQSVYNNNYLSWFQQKPGKPPKLLIYGASTLTSGVPSRFSGSGSGTDFTLTISSLQPEDFATYYCAGGYSGSSDKYAFGGGTKVEIK	< 8.30
